List of Rabbit Colon % Inh values.
Target: Motilin Receptor (Oryctolagus cuniculus)
Construct: The muscle tissue was homogenized in 10 volumes of 50 mM Tris-Cl; from tissue; host or cells: rabbit colon smooth muscle, crude membrane homogenate
Assay: Motilin receptor binding, rabbit colon membranes, 125I porcine motilin
Design: dose or concentration left out as unconfirmed
Details: rabbit colon membranes
property: Rabbit Colon % Inh (%)

1. O=C(Nc1cccc(OCCN2CCOCC2)c1)C1=C(C(=O)N(CCc2ccccc2)Cc2ccccc2)CCC1 : 18
2. CC(=O)Oc1ccc2c(c1)C(=O)N(C1CCCC(CN(C(=O)c3ccc(F)cc3)c3cccc(OCCN4CCOCC4)c3)C1)C2=O (stereo not shown) : 30
3. Cc1ccc(C(=O)N(CCCC(=O)N(Cc2ccccc2)Cc2ccccc2)c2cccc(OCCN3CCOCC3)c2)cc1 : 23
4. O=C(Nc1ccccc1)N(CC1CCCC(N(Cc2cccc(Cl)c2)C(=O)c2cc(C(F)(F)F)cc(C(F)(F)F)c2)C1)c1cccc(OCCN2CCOCC2)c1 (stereo not shown) : 37

###

In this section, each of the compounds is paired with its reported Rabbit Colon % Inh.
Biological target: Motilin Receptor (Oryctolagus cuniculus, UniProt G1T803)
Construct: The muscle tissue was homogenized in 10 volumes of 50 mM Tris-Cl; from tissue; host or cells: rabbit colon smooth muscle, crude membrane homogenate
Sequence (G1T803 1-400): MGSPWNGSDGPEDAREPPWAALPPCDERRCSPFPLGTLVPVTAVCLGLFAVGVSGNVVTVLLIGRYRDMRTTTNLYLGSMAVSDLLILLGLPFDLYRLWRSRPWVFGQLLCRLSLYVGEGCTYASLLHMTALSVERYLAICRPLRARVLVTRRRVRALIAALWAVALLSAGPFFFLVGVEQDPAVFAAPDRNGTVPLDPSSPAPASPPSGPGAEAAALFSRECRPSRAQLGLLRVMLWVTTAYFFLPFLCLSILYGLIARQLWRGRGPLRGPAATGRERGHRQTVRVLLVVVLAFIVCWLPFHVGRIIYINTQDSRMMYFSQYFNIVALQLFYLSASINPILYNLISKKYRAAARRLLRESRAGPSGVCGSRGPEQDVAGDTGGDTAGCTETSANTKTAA
Test: Motilin receptor binding, rabbit colon membranes, 125I porcine motilin
Set-up: dose or concentration left out as unconfirmed
Settings: rabbit colon membranes
property: Rabbit Colon % Inh (%)

1. O=C(c1ccc(F)cc1)N(CC1CCCC(N(Cc2ccccc2)C(=O)c2cc(C(F)(F)F)cc(C(F)(F)F)c2)C1)c1cccc(OCCN2CCOCC2)c1 (stereo not shown) : 22
2. CCN(Cc1ccccc1)C(=O)CCCN(C(=O)c1ccc(F)cc1)c1cccc(OCCN2CCOCC2)c1 : 0
3. O=C(c1ccc(F)cc1)N(CC1CCCC(N(Cc2cccc(Cl)c2)C(=O)C(c2ccccc2)c2ccccc2)C1)c1cccc(OCCN2CCOCC2)c1 (stereo not shown) : 59
4. O=C(CCc1ccccc1)NC1CCCC(CN(C(=O)Nc2ccccc2)c2cccc(OCCN3CCOCC3)c2)C1 (stereo not shown) : 10
5. CCN(Cc1ccccc1)C(=O)CCCN(C(=O)Nc1ccccc1)c1cccc(OCCN2CCOCC2)c1 : 18
6. Cc1ccc(C(=O)N(CCCCC(=O)N(C)Cc2ccccc2)c2cccc(OCCN3CCOCC3)c2)cc1 : 34
7. O=C(c1cccc(CN(C(=O)c2ccc(F)cc2)c2cccc(OCCN3CCOCC3)c2)c1)N(CCc1ccccc1)Cc1ccccc1 : 43

###

Quick list: Rabbit Colon % Inh per entry.
Target: Motilin Receptor (Oryctolagus cuniculus, UniProt G1T803)
Construct: The muscle tissue was homogenized in 10 volumes of 50 mM Tris-Cl; from tissue; host or cells: rabbit colon smooth muscle, crude membrane homogenate
Assay: Motilin receptor binding, rabbit colon membranes, 125I porcine motilin
Design: dose or concentration left out as unconfirmed
Details: rabbit colon membranes
property: Rabbit Colon % Inh (%)

1) COc1cccc(CN(C(=O)C(Cl)(Cl)Cl)C2CCCC(CN(C(=O)c3ccc(F)cc3)c3cccc(OCCN4CCOCC4)c3)C2)c1 (centres unmarked) : 56
2) CC(C)(C)C(=O)N(Cc1cccc(Cl)c1)C1CCCC(CN(C(=O)Nc2ccccc2)c2cccc(OCCN3CCOCC3)c2)C1 (centres unmarked) : 45
3) CN(C)CCOc1ccc(N(Cc2ccc(F)cc2)C(=O)CCCC(=O)N(CCc2ccccc2)Cc2ccccc2)cc1 : 23
4) COc1cccc(CC(=O)N[C@@H](Cc2ccccc2)C(=O)N(Cc2ccc(F)cc2)c2cccc(OCCN3CCOCC3)c2)c1 : 0
5) O=C(C1CC=CCC1C(=O)N(Cc1ccc(F)cc1)c1cccc(OCCN2CCOCC2)c1)N(CCc1ccccc1)Cc1ccccc1 (centres unmarked) : 34
6) Cc1ccc(S(=O)(=O)N(CCCC(=O)N(Cc2ccccc2)Cc2ccccc2)c2cccc(OCCN3CCOCC3)c2)cc1 : 6
7) COc1ccc(CC(=O)N(Cc2cccc(Cl)c2)C2CCCC(CN(C(=O)c3ccc(F)cc3)c3cccc(OCCN4CCOCC4)c3)C2)cc1 (centres unmarked) : 35
8) O=C(CCC(=O)N(Cc1ccc(C(F)(F)F)cc1)c1cccc(OCCN2CCOCC2)c1)N(CCc1ccccc1)Cc1ccccc1 : 42
9) O=C(N[C@@H](Cc1ccccc1)C(=O)N(Cc1ccc(F)cc1)c1cccc(OCCN2CCOCC2)c1)c1ccc(-c2ccccc2)cc1 : 10
10) O=C(c1ccc(F)cc1)N(CC1CCCC(N2C(=O)c3ccc4ccccc4c3C2=O)C1)c1cccc(OCCN2CCOCC2)c1 (centres unmarked) : 15
11) O=C(c1ccc(F)cc1)N(CC1CCCC(N2C(=O)c3c(Cl)ccc(Cl)c3C2=O)C1)c1cccc(OCCN2CCOCC2)c1 (centres unmarked) : 11
12) O=C(Nc1ccccc1)N(CC1CCCC(N(Cc2ccccc2)C(=O)C(c2ccccc2)c2ccccc2)C1)c1cccc(OCCN2CCOCC2)c1 (centres unmarked) : 32
13) CCN(Cc1ccc(C)cc1)C(=O)CCCN(C(=O)Nc1ccccc1)c1cccc(OCCN2CCOCC2)c1 : 17
14) COc1ccc(CC(=O)N(Cc2cccc(Cl)c2)C2CCCC(CN(C(=O)c3ccc(F)cc3)c3cccc(OCCN4CCOCC4)c3)C2)cc1OC (centres unmarked) : 40
15) CC(C)(C)C(=O)N(Cc1ccccc1)C1CCCC(CN(C(=O)Nc2ccccc2)c2cccc(OCCN3CCOCC3)c2)C1 (centres unmarked) : 50
16) O=C(c1ccc(F)cc1)N(CC1CCCC(N(Cc2cccc(Cl)c2)C(=O)c2cccc([N+](=O)[O-])c2)C1)c1cccc(OCCN2CCOCC2)c1 (centres unmarked) : 47
17) O=C(CCCN(C(=O)c1ccc(F)cc1)c1cccc(OCCN2CCOCC2)c1)N1CCN(C(c2ccccc2)c2ccc(Cl)cc2)CC1 (centres unmarked) : 27
18) O=C(c1ccc(F)cc1)N(Cc1cccc(C(=O)N2CCc3ccccc3C2c2ccccc2)c1)c1cccc(OCCN2CCOCC2)c1 (centres unmarked) : 17
19) O=C(CCCCN(C(=O)Nc1ccccc1)c1cccc(OCCN2CCOCC2)c1)N(CCc1ccccc1)Cc1ccccc1 : 40
20) CC(C)(C)C(=O)NC1CCCC(CN(C(=O)Nc2ccccc2)c2cccc(OCCN3CCOCC3)c2)C1 (centres unmarked) : 19
21) O=C(NC(c1ccccc1)c1ccccc1)c1cccc(CN(C(=O)c2ccc(F)cc2)c2cccc(OCCN3CCOCC3)c2)c1 : 30
22) O=C([C@H](Cc1ccccc1)N(Cc1ccccc1)C(=O)CCc1ccccc1)N(Cc1ccc(F)cc1)c1cccc(OCCN2CCOCC2)c1 : 0
23) O=C(c1ccc(F)cc1)N(CC1CCCC(N2C(=O)c3ccccc3C2=O)C1)c1cccc(OCCN2CCOCC2)c1 (centres unmarked) : 0
24) O=C(Nc1ccccc1)N(CC1CCC(N(Cc2cccc(Cl)c2)C(=O)c2ccco2)CC1)c1cccc(OCCN2CCOCC2)c1 (centres unmarked) : 0
25) O=C(Nc1ccccc1)N(CC1CCCC(N(Cc2cccc(Cl)c2)C(=O)C(Cl)(Cl)Cl)C1)c1cccc(OCCN2CCOCC2)c1 (centres unmarked) : 23
26) O=C(c1ccc(F)cc1)N(CC1CCCC(NC(=O)C(Cl)(Cl)Cl)C1)c1cccc(OCCN2CCOCC2)c1 (centres unmarked) : 36
